Experiment: viability loss in pontine glioma line – cell-based, SU-DIPG-XIII, MIPE5.0, CellTiter-Glo, qHTS, dose response (AID 1347064);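 for AC50: cells exposed to compound for 48 hours before the viability read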
Conditions: CellTiter-Glo ATP luminescence
Inconclusive results are not listed. Active and inactive are the calls of the source. No cut-off is given here; in the data, nearly all actives have AC50 up to about 23 µM.
property-label: AC50

INSERT INTO measurements (molecule, result) VALUES
  ('CS(=O)(=O)Oc1ccc2c(NC(N)=O)c(C(=O)c3ccc(Cl)cc3Cl)oc2c1', 'inactive'),
  ('O=C(O)[C@H](CC(=O)N1C[C@H]2CCCC[C@H]2C1)Cc1ccccc1', 'inactive'),
  ('O=C(NC1CCOCC1)c1ccc(-c2cc(-c3cn[nH]c3-c3ccccn3)ccn2)cc1', 'inactive'),
  ('CCCc1c(OCCCOc2ccc(OCC(=O)O)cc2)ccc(C(C)=O)c1O', 'inactive'),
  ('CCS(=O)(=O)c1ccc2oc(-c3ccc4ccccc4c3)nc2c1', 'inactive');

Req: Can you look up the measured AC50 of CC(C)(OCc1nn(Cc2ccccc2)c2ccccc12)C(=O)O for me?
Resp: inactive

Req: Here is the next molecule: CCCCCCCCc1ccc(CCC(N)(CO)CO)cc1
Resp: 18.6 µM (active)

Req: Here is the next molecule: CCC[C@H](NC(=O)[C@@H]1[C@H]2CCC[C@H]2CN1C(=O)[C@@H](NC(=O)[C@@H](NC(=O)c1cnccn1)C1CCCCC1)C(C)(C)C)C(=O)C(=O)NC1CC1
Resp: inactive

Req: Here is the next molecule: CC(C)Oc1ccc(-c2nn([C@@H](C)c3oc4ccc(F)cc4c(=O)c3-c3cccc(F)c3)c3ncnc(N)c23)cc1F
Resp: inactive

Req: Here is the next molecule: NC(=O)Nc1cc(-c2cccc(F)c2)sc1C(=O)N[C@H]1CCCNC1
Resp: 2.09 µM (active)

Req: Here is the next molecule: C=C1[C@H](OC(=O)/C=C(\C)CC)C[C@@H](C(C)C)[C@@H]2[C@H]([C@@H](C)OC(C)=O)C(=O)C[C@@H]12
Resp: 18.6 µM (active)

---

Assay: JHH-DIPG-1 glioma cell viability, MIPE5.0 library, CellTiter-Glo luminescence, qHTS (AID 1347067);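 note: cells exposed to compound for 48 hours before readout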
Conditions: JHH-DIPG-1 glioma viability, CellTiter-Glo ATP luminescence
Results filed as inconclusive are left out. Activity calls are given as the source filed them. The limit is not given here; nearly all actives have AC50 up to about 26 µM.
A correct response names exactly one class from true = active, false = inactive

Req: Hey, what did the test say about NC[C@@](O)(c1ccc(Cl)cc1)c1ccc(-c2cn[nH]c2)cc1 ?
Resp: true

Req: Here is the next molecule: Cc1ccn(-c2ccc(-c3ncco3)cc2)c(=O)c1-c1ccc2nc(N)ncc2c1
Resp: false

Req: Here is the next molecule: Cc1ccc(S(=O)(=O)Cc2nc(-c3ccc(C(=O)NCc4cccnc4)cc3)oc2C)cc1
Resp: true

Req: Here is the next molecule: C=C1C(=O)O[C@H]2C[C@H](C)C(/C=C/C(C)=O)=CC[C@H]12
Resp: true

Req: Here is the next molecule: CCc1ccc2nc(Nc3cc(Cc4ccccc4)nc(NC4CCC(O)CC4)n3)sc2c1 (stereo not given)
Resp: true

Req: Here is the next molecule: Nc1nccc(-c2c(-c3ccc(F)cc3)ncn2C2CCN(Cc3ccon3)CC2)n1
Resp: false

Req: Here is the next molecule: CCS(=O)(=O)N1CC(CC#N)(n2cc(-c3ncnc4[nH]ccc34)cn2)C1
Resp: false
